# protocol-summary: qHTS RealTime-Glo MT Cell Viability Assay in HepG2 cells - 16 hour (AID 1224885); also: nearly all actives have a fitted effect of over 50% in size
# cond: RealTime-Glo luminescence; series mostly up to 76.8 µM
Inconclusive results are not listed. Calls of active or inactive are those of the source. Calls follow the shape of the dose curve; as a rule, active = well fitted cell-killing curve with a large enough effect in the repeat runs; inconclusive = weak or mixed curves; inactive = flat fitted curve, though single readings scatter.
Labels: Y (active), N (inactive)

>>> class_label("CCCC(c1cc(C(C)(C)C)c(O)cc1C)c1cc(C(C)(C)C)c(O)cc1C")
"Y"
>>> class_label("Cn1cc(C(=O)[C@@H]2CCc3nc[nH]c3C2)c2ccccc21")
"N"
>>> class_label("ON=C1CCCC1")
"N"
>>> class_label("CC1=NC(C)OC1C (centres undefined)")
"N"
>>> class_label("CNc1ccc(O)cc1")
"Y"
>>> class_label("N=C1N=C(N)c2cc3ccccc3cc21")
"Y"
>>> class_label("N#CSc1ccc(N)c([N+](=O)[O-])c1")
"N"
>>> class_label("Clc1ccc2nsnc2c1NC1=NCCN1")
"N"
>>> class_label("Cc1cc(O)c(C(C)(C)C)cc1Sc1cc(C(C)(C)C)c(O)cc1C")
"Y"
>>> class_label("C[n+]1ccn(Cc2ccccc2)c1")
"N"
>>> class_label("O=C1C=CC(=O)N1")
"Y"
>>> class_label("O=c1cccccc1O")
"N"
>>> class_label("O=c1cc(-c2ccc(O)cc2)oc2cc(O)cc(O)c12")
"N"
>>> class_label("CCCCC(CC)COP(=O)(O)OCC(CC)CCCC (centres undefined)")
"N"

---

# protocol-summary: qHTS RealTime-Glo MT Cell Viability Assay in HEK293 cells - 16 hour (AID 1224872); also: nearly all actives have a fitted effect of over 50% in size
# cond: RealTime-Glo luminescence; series mostly up to 76.8 µM
Records with an inconclusive call do not appear. Active and inactive are the calls of the source. The call rests on the fitted dose curve; in most records, active means well fitted cell-killing curve with a large enough effect in the repeat runs; inconclusive means weak or mixed curves, or effect the other way; inactive means flat fitted curve, though single readings scatter.
Labels: 1 (active), -1 (inactive)

>>> class_label("CC(C)(C)CC(C)(C)c1ccc(O)c(Cc2ccc(Cl)cc2Cl)c1")
1
>>> class_label("c1ccc(CSCc2ccccc2)cc1")
-1
>>> class_label("C[C@H](CCC(=O)O)[C@H]1CC[C@H]2[C@@H]3CC[C@@H]4C[C@H](O)CC[C@]4(C)[C@H]3CC[C@]12C")
-1
>>> class_label("Nc1ccc(N)c2ccccc12")
1
>>> class_label("C=CC(=O)OCCn1c(=O)n(CCOC(=O)C=C)c(=O)n(CCOC(=O)C=C)c1=O")
1
>>> class_label("CCCN(CCC)C(=O)C(CCC(=O)OCCCN1CCN(CCOC(=O)Cc2c(C)n(C(=O)c3ccc(Cl)cc3)c3ccc(OC)cc23)CC1)NC(=O)c1ccccc1 (centres undefined)")
1
>>> class_label("O=C(O)c1ccc(Cl)c(Cl)c1")
-1
>>> class_label("CC(C)(C)c1ccc(C(=O)O)cc1")
-1
>>> class_label("C1CCCC1")
-1
>>> class_label("CC1=C(/C=C/C(C)=C/C=C/C(C)=C/C=O)C(C)(C)CCC1")
1
>>> class_label("CN(C)C(=O)C1(N2CCCCC2)CCN(CC[C@@]2(c3ccc(Cl)c(Cl)c3)CN(C(=O)c3ccccc3)CCO2)CC1")
1
>>> class_label("O=C(Nc1ccc(Oc2ccc(Cl)cc2)c(Cl)c1)c1cc(I)cc(I)c1O")
-1
>>> class_label("Oc1c(Cl)cc(Cl)c2cccnc12")
-1
>>> class_label("CCCCCCCC[N+](CCCCCCCC)(CCCCCCCC)CCCCCCCC")
1
>>> class_label("Oc1ccc2cc(SSc3ccc4cc(O)ccc4c3)ccc2c1")
1
>>> class_label("O=[N+]([O-])c1ccccc1Nc1ccccc1")
-1
>>> class_label("CC(C)n1nc(-c2cc3cc(O)ccc3[nH]2)c2c(N)ncnc21")
1
>>> class_label("O=c1[nH]cnc2nc[nH]c12")
-1
>>> class_label("Cc1ccc2oc(CN(Cc3ccccc3)C(=O)Nc3c(F)cc(F)cc3F)c(-c3ccc(Cl)cc3)c2c1")
-1
>>> class_label("CN(C)c1ccc(SC#N)cc1")
-1
>>> class_label("Clc1ccccc1C(c1ccccc1)(c1ccccc1)n1ccnc1")
1
>>> class_label("CCC1=C[C@@H]2CN(C1)Cc1c([nH]c3ccccc13)[C@@](C(=O)OC)(c1cc3c(cc1OC)N(C)[C@H]1[C@@](O)(C(=O)OC)[C@H](OC(C)=O)[C@]4(CC)C=CCN5CC[C@]31[C@@H]54)C2")
1
>>> class_label("C[C@@H]1C[C@H]2[C@@H]3CCC4=CC(=O)C=C[C@]4(C)[C@@]3(Cl)[C@@H](O)C[C@]2(C)[C@@]1(OC(=O)c1ccco1)C(=O)CCl")
-1
>>> class_label("CCC(N)(CO)CO")
-1
>>> class_label("Cc1cc(O)c(C(C)(C)C)cc1C(C)(C)C")
1
>>> class_label("CC(C)CCCCCCCCCCCCCCC(=O)O")
-1
>>> class_label("CC(C)(C)c1ccc(C(=O)CCCN2CCC(OC(c3ccccc3)c3ccccc3)CC2)cc1")
1
>>> class_label("CCN(CCC#N)c1ccc(N=Nc2c(Cl)cc([N+](=O)[O-])cc2Cl)cc1")
-1
>>> class_label("C[C@]12CCC(=O)C=C1CC[C@@H]1[C@@H]2[C@@H](O)C[C@@]2(C)[C@H]1CC[C@]2(O)C(=O)COC(=O)CCC(=O)O")
-1
>>> class_label("CCCC/C=C/CCCCO")
-1
>>> class_label("N#CC1(c2ccc(F)cc2)CCC(=O)CC1")
-1
>>> class_label("C=CC(=O)OCC(CO)(COCC(COC(=O)C=C)(COC(=O)C=C)COC(=O)C=C)COC(=O)C=C")
1
>>> class_label("Cc1ccc(O)c(C(C)(C)C)c1")
-1
>>> class_label("[Cl][Au]([Cl])[Cl]")
1
>>> class_label("CCCCCCCC(=O)[O-].CCCCCCCC(=O)[O-].[Zn+2]")
-1
>>> class_label("OC1(c2ccc(Cl)c(C(F)(F)F)c2)CCN(CCCC(c2ccc(F)cc2)c2ccc(F)cc2)CC1")
1
>>> class_label("CC[C@H]1O[C@]2(CC[C@@H]1C)C[C@@H]1C[C@@H](C/C=C(\\C)C[C@@H](C)/C=C/C=C3\\CO[C@@H]4[C@H](O)C(C)=C[C@@H](C(=O)O1)[C@]34O)O2")
1
>>> class_label("O=C(NO)C1(NS(=O)(=O)c2ccc(Oc3ccc(F)cc3)cc2)CCOCC1")
-1
>>> class_label("CCCC(C)c1ccccc1O (centres undefined)")
-1
>>> class_label("NNc1nc(-c2ccc(N)cc2)cs1")
-1
>>> class_label("C=CC(=O)OCC(CO)(COC(=O)C=C)COC(=O)C=C")
1
>>> class_label("CSc1cnc(C)cn1")
-1
>>> class_label("CNc1ccc(O)cc1")
1
>>> class_label("Cc1onc(-c2c(Cl)cccc2Cl)c1C(=O)N[C@@H]1C(=O)N2[C@@H]1SC(C)(C)[C@@H]2C(=O)O")
-1

---

# protocol-summary: qHTS assay to identify small molecule antagonists of the thyroid receptor (TR) signaling pathway - cell viability counter screen (AID 743064); also: nearly all actives have a fitted effect of over 50% in size
# cond: GH3.TRE-Luc viability, CellTiter-Fluor, 24 h; series mostly up to 70.3 µM
Results filed as inconclusive are left out. Calls of active or inactive are those of the source. Calls come from the whole dose curve; as a rule, active = well fitted cell-killing curve with a large enough effect in the repeat runs; inconclusive = weak or mixed curves, or effect the other way; inactive = no such curve, though single readings can be large or run the other way.
Labels: active, inactive

>>> class_label("O=c1c(-c2ccccc2)c1-c1ccccc1")
"active"
>>> class_label("COc1cccc(N)c1")
"inactive"
>>> class_label("CCCCN1CCCC[C@H]1C(=O)Nc1c(C)cccc1C")
"inactive"
>>> class_label("Cc1cc(O)c(Cl)c(C)c1Cl")
"active"
>>> class_label("CC[C@H](c1ccc(O)cc1)[C@@H](CC)c1ccc(O)cc1")
"active"
>>> class_label("Cc1[nH]cnc1C[C@H]1CCc2c(C)c3ccccc3n2C1=O")
"active"
>>> class_label("O=C(Nc1cccc([N+](=O)[O-])c1)c1cc2ccccc2cc1O")
"active"

---

# subject-of-test: Glucocorticoid receptor (Homo sapiens)
# protocol-summary: qHTS assay to identify small molecule antagonists of the glucocorticoid receptor (GR) signaling pathway (AID 720692)
# cond: GR-bla HeLa, beta-lactamase FRET ratio, dexamethasone-stimulated, 18 h; series mostly up to 58.5 µM
Inconclusive results are not listed. Active and inactive are the calls of the source. The call rests on the fitted dose curve; in most records, active means well fitted inhibition curve with a large enough effect in the signal ratio in the repeat runs (not every such curve was filed as active); inconclusive means weak or mixed curves, or effect the other way; inactive means no such curve, though single readings can be large or run the other way; the % refers to the signal ratio.
Labels: active, inactive

>>> class_label("Clc1ccc2nsnc2c1NC1=NCCN1")
"inactive"
>>> class_label("CCN(CCC#N)c1ccc(N=Nc2c(Cl)cc([N+](=O)[O-])cc2Cl)cc1")
"inactive"
>>> class_label("CC(NN)c1ccccc1 (configuration not stated)")
"inactive"
>>> class_label("O=C(Oc1ccccc1)c1ccccc1C(=O)Oc1ccccc1")
"inactive"
>>> class_label("CCN(C(=O)c1cc(C)cc(OC[C@H](C)Nc2ccncc2)c1)C(C)C")
"inactive"
>>> class_label("Oc1cccc2cc3cccc(O)c3c(O)c12")
"inactive"
>>> class_label("O=C(c1ccc(O)cc1O)c1ccc(O)cc1O")
"active"
>>> class_label("CCc1cc(Cc2cc(CC)c(N)c(CC)c2)cc(CC)c1N")
"active"
>>> class_label("S=c1[nH]c2ccccc2s1")
"inactive"
>>> class_label("Cc1ccc(O)c(C(C)(C)C)c1")
"inactive"
>>> class_label("CCOC(=O)/C=C(C)/C=C/C=C(C)/C=C/c1c(C)cc(OC)c(C)c1C")
"inactive"
>>> class_label("CC1=NC(C)OC1C (configuration not stated)")
"active"
>>> class_label("Oc1ccc(C2(c3ccc(O)cc3)CC3CC2C2CCCC32)cc1 (configuration not stated)")
"active"
>>> class_label("CN(C)[C@@H]1C(=O)C(C(N)=O)=C(O)[C@@]2(O)C(=O)C3=C(O)c4c(O)ccc(Cl)c4[C@@H](O)[C@H]3C[C@@H]12")
"inactive"
>>> class_label("CN(C/C=C/C#CC(C)(C)C)Cc1cccc2ccccc12")
"inactive"
>>> class_label("CC(C)OC(=O)c1cc2c(OCC(O)CNC(C)(C)C)cccc2[nH]1 (configuration not stated)")
"inactive"
>>> class_label("CCCCCCCCCCC=O")
"inactive"

All figures here come from PubChem BioAssay (Tox21).
